system: NCI-H838; experiment: relative viability (nuclei count vs DMSO), 5 days (fraction); higher = more cells survive; settings: first compound 0.5 µM
VALUE TYPE: relative viability

[[record]]
compound = "COc1cc2nccc(Oc3ccc(NC(=O)Nc4cc(C)on4)c(Cl)c3)c2cc1OC [Tivozanib] + CC1(C)CCC(c2ccc(Cl)cc2)=C(CN2CCN(c3ccc(C(=O)NS(=O)(=O)c4ccc(N[C@H](CCN5CCOCC5)CSc5ccccc5)c(S(=O)(=O)C(F)(F)F)c4)cc3)CC2)C1 [Navitoclax] (partner 0.5 µM)"
target = "NCI-H838"
value_observed = 1.12

[[record]]
compound = "Nc1ccn([C@@H]2O[C@H](CO)[C@@H](O)[C@@H]2O)c(=O)n1 [Cytarabine] + O=C(c1cc(Cc2n[nH]c(=O)c3ccccc23)ccc1F)N1CCN(C(=O)C2CC2)CC1 [Olaparib] (partner 8 µM)"
target = "NCI-H838"
value_observed = 0.197

[[record]]
compound = "COc1cc2nccc(Oc3ccc(NC(=O)Nc4cc(C)on4)c(Cl)c3)c2cc1OC [Tivozanib] + N=C(N)NC(=N)NCCc1ccccc1 [Phenformin] (partner 250 µM)"
target = "NCI-H838"
value_observed = 0.564

[[record]]
compound = "COc1cc2nccc(Oc3ccc(NC(=O)Nc4cc(C)on4)c(Cl)c3)c2cc1OC [Tivozanib] + NC(=O)Nc1cc(-c2cccc(F)c2)sc1C(=O)N[C@H]1CCCNC1 [AZD7762] (partner 0.2 µM)"
target = "NCI-H838"
value_observed = 0.95

[[record]]
compound = "Nc1ccn([C@@H]2O[C@H](CO)[C@@H](O)[C@@H]2O)c(=O)n1 [Cytarabine] + O=C(CCCCCCC(=O)Nc1ccccc1)NO [Vorinostat] (partner 1 µM)"
target = "NCI-H838"
value_observed = 0.318

[[record]]
compound = "COc1cc2nccc(Oc3ccc(NC(=O)Nc4cc(C)on4)c(Cl)c3)c2cc1OC [Tivozanib] + Nc1ncn([C@H]2C[C@H](O)[C@@H](CO)O2)c(=O)n1 [Decitabine] (partner 2 µM)"
target = "NCI-H838"
value_observed = 0.428

[[record]]
compound = "COc1cc2nccc(Oc3ccc(NC(=O)Nc4cc(C)on4)c(Cl)c3)c2cc1OC [Tivozanib] + CCNC(=O)c1noc(-c2cc(C(C)C)c(O)cc2O)c1-c1ccc(CN2CCOCC2)cc1 [Luminespib] (partner 0.01 µM)"
target = "NCI-H838"
value_observed = 0.237

[[record]]
compound = "COc1cc2nccc(Oc3ccc(NC(=O)Nc4cc(C)on4)c(Cl)c3)c2cc1OC [Tivozanib] + O=C(c1cc(Cc2n[nH]c(=O)c3ccccc23)ccc1F)N1CCN(C(=O)C2CC2)CC1 [Olaparib] (partner 8 µM)"
target = "NCI-H838"
value_observed = 0.773

[[record]]
compound = "COc1cc2nccc(Oc3ccc(NC(=O)Nc4cc(C)on4)c(Cl)c3)c2cc1OC [Tivozanib] + CC(=O)Nc1cccc(-n2c(=O)n(C3CC3)c(=O)c3c(Nc4ccc(I)cc4F)n(C)c(=O)c(C)c32)c1 [Trametinib] (partner 0.02 µM)"
target = "NCI-H838"
value_observed = 0.504


This collection of values is drawn from the supplement of paper PMC10307832.
